- Tested on: HL-60
- protocol_text: Cytotoxicity against human HL60 cells by MTT assay
- Type: cell-based
Let's look at some molecules and their measured Activity.
Answer format: numeric, µg/mL implied, no suffix.

- molecule: "C1=C\\CCCCC[C@H]2CN3CC/C=C\\CCCCCC[C@@H]4C[C@@H](CN(CC/C=C\\C/1)C4)[C@H]2CC3"
  Activity (µg/mL): 2.2

Ask | Give Activity for the following molecule: OC1\C=C/C=C/C=C/CC[C@H]2CN3CCCCCCCCCCCC[C@H]4C[C@H](CN(C1)C4)[C@@H]2CC3 (some centres undefined)
Reply | 6.9

Ask | Please give the documented Activity of OC1/C=C\C=C/CCCCCC[C@H]2CN3CC/C=C\CCCCCCC4C[C@@H](CN(C1)C4)[C@H]2CC3 (some centres undefined)
Reply | 2.1

Ask | For the molecule O[C@H]1/C2=C\C/C=C/C=C\C=C/CCN3CC45CCCCCCCCCCCCN(CC1C4CC23)C5 (some centres undefined) , give its reported Activity.
Reply | 16.7
